# target: T1, HLA-A2 molecule (human)
# T1 construct: also called HLA-A2 on T2 cells (174CEM-T2; T2A2 cells)
# measurement description: T2 cell binding assay: flow cytometry of surface HLA-A2 with anti-HLA-A2 mAb after incubation with peptide (50 µg/ml)
experimental readout: T2 binding (relative fluorescence)

>>> print(df.to_string())
                                     binder             units_text  reported_value
0  TLASHSTKTD [MUC-1 peptide P-1104, TLASHSTKTD]  relative fluorescence             442
1  REGTINVHDV [MUC-1 peptide P-1108, REGTINVHDV]  relative fluorescence             482
2  WGQDVTSVPV [MUC-1 peptide P-94, WGQDVTSVPV]  relative fluorescence             591
3  LAFREGTINV [MUC-1 peptide P-1105, LAFREGTINV]  relative fluorescence             461
4  ALLVLVCVLV [MUC-1 peptide P-1162, ALLVLVCVLV]  relative fluorescence             431
5  VLVALAIVYL [MUC-1 peptide P-1169, VLVALAIVYL]  relative fluorescence             369

I. LQRDISEMFL [MUC-1 peptide P-1069, LQRDISEMFL]
II. ATWGQDVTSV (Synthetic 10-mer from the non-VNTR region of MUC-1) [MUC-1 peptide P-92 (native), ATWGQDVTSV]
Inquiry: Rank I against II by their T2 binding (relative fluorescence) values and give the higher one. Lab log: write the label of the selected item as the result.
Reply text: II
(II: 740 relative fluorescence, I: 433 relative fluorescence)
